Consider the following compounds; for each one, report its inhibition.
- target under test: UniProt P08173
- Sequence (whole entry): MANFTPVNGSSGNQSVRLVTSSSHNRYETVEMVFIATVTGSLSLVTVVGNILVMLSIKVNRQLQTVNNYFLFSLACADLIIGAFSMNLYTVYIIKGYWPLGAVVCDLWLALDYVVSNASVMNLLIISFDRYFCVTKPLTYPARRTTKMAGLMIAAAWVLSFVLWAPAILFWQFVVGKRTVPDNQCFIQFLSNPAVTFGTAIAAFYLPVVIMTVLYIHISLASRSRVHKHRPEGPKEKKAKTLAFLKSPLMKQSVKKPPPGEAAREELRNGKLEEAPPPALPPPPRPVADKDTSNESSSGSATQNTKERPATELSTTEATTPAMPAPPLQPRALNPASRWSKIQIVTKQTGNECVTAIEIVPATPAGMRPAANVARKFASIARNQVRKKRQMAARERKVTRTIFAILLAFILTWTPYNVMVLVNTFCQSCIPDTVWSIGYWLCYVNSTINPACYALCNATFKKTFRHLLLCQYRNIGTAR
- protocol summary: Antagonist activity at human muscarinic M4 receptor assessed as inhibition of agonist-induced effect at 10 uM by GTPgamma[35S] binding-based assay
- Type: functional
Expressed in %, but write only the number.

### Prompt Need inhibition, item "CN(CCCNC(=O)c1cccc(Br)c1)Cc1ccccc1"
### Response 33

### Prompt Need inhibition, item "CN(CCCNC(=O)c1ccc(Br)cc1)Cc1ccccc1"
### Response 20

### Prompt Need inhibition, item "CN(CCCNC(=O)c1ccc(Cl)cc1)Cc1ccccc1"
### Response 19

### Prompt Need inhibition, item "CN(CCCNC(=O)c1ccc([N+](=O)[O-])cc1)Cc1ccccc1"
### Response -7

### Prompt Need inhibition, item "CN(CCCNC(=O)c1ccc(Cl)cc1)CCc1ccccc1"
### Response 18

### Prompt Need inhibition, item "CCCc1ccc(C(=O)NCCCN(C)Cc2ccccc2)cc1"
### Response 33

### Prompt Need inhibition, item "COc1ccc(C(=O)NCCCN(C)Cc2ccccc2)cc1"
### Response 25

### Prompt Need inhibition, item "CN(CCNC(=O)c1ccc(Cl)cc1)Cc1ccccc1"
### Response 13

### Prompt Need inhibition, item "CN(CCCNC(=O)c1ccc(C(F)(F)F)cc1)Cc1ccccc1"
### Response 23

### Prompt Need inhibition, item "CN(CCNC(=O)c1ccc(C#N)cc1)Cc1ccccc1"
### Response 25

### Prompt Need inhibition, item "COc1cccc(C(=O)NCCCN(C)Cc2ccccc2)c1"
### Response 21

### Prompt Need inhibition, item "CN(CCNC(=O)c1ccc([N+](=O)[O-])cc1)Cc1ccccc1"
### Response 26

###

- target under test: Cholecystokinin receptor type A (Homo sapiens) (UniProt P32238)
- Sequence (whole entry): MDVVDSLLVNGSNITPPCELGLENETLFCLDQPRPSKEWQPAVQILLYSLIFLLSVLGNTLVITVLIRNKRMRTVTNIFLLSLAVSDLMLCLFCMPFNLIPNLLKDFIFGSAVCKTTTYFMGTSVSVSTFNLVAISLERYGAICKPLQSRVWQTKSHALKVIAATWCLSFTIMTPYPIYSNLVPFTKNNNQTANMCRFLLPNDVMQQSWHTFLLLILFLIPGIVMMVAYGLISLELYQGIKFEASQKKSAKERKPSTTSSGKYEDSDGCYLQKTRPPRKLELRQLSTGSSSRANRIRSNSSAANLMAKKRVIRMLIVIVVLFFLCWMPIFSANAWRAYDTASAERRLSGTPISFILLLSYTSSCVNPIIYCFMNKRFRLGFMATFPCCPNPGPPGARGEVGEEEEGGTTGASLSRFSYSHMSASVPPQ
- protocol summary: Antagonist activity at recombinant human […] receptor assessed as inhibition of agonist induced effect at 10 uM by aequorin reporter based assay
- Format: functional
assay metric: inhibition (%)
Expressed in %, but write only the number.

### Prompt Need inhibition, item "COc1cccc(C(=O)NCCCN(C)Cc2ccccc2)c1"
### Response 18

### Prompt Need inhibition, item "COc1ccc(C(=O)NCCCN(C)Cc2ccccc2)cc1"
### Response 14

### Prompt Need inhibition, item "CN(CCNC(=O)c1ccc([N+](=O)[O-])cc1)Cc1ccccc1"
### Response 18

### Prompt Need inhibition, item "CN(CCCNC(=O)c1ccc(Cl)cc1)Cc1ccccc1"
### Response 12

### Prompt Need inhibition, item "CN(CCNC(=O)c1ccc(Cl)cc1)Cc1ccccc1"
### Response 26

### Prompt Need inhibition, item "CN(CCCNC(=O)c1ccc(Cl)cc1)CCc1ccccc1"
### Response 29

### Prompt Need inhibition, item "CN(CCCNC(=O)c1cccc(Br)c1)Cc1ccccc1"
### Response 10

### Prompt Need inhibition, item "CCCc1ccc(C(=O)NCCCN(C)Cc2ccccc2)cc1"
### Response 17

### Prompt Need inhibition, item "CN(CCCNC(=O)c1ccc(Br)cc1)Cc1ccccc1"
### Response -5

### Prompt Need inhibition, item "CN(CCNC(=O)c1ccc(C#N)cc1)Cc1ccccc1"
### Response 21

### Prompt Need inhibition, item "CN(CCCNC(=O)c1ccc(C(F)(F)F)cc1)Cc1ccccc1"
### Response 22

### Prompt Need inhibition, item "CN(CCCNC(=O)c1ccc([N+](=O)[O-])cc1)Cc1ccccc1"
### Response 14
